- System: K562
- Protocol Text: NCI tumour cell line growth inhibition, 48 h
Active and inactive are the calls of the source. Rule as the data show it: active = GI50 up to about 1.1 µM and inactive = higher.

Compound | GI50
CCOC(=O)C1=C(C)C2C=C(c3cccs3)CC(c3ccc(Cl)cc3)=C2OC1=O (stereo not drawn) | 5.05 µM (inactive)
CC(C)(C)C1=NC(=S)SC2=NC(=O)C3(NN21)c1ccccc1-c1ccccc13 | 5.05 µM (inactive)
CC(C)C12C=CC(C)(CC1)n1c(=O)c3cc4ccccc4cc3c(=O)n12 (stereo not drawn) | 34.4 µM (inactive)
COC(=O)Nc1nc2cc(Br)ccc2[nH]1 | 17.6 µM (inactive)
CCOC(=O)c1c[nH]cc1-c1cn(S(=O)(=O)c2ccccc2)cc1C | 19.1 µM (inactive)
O=C(O)CCc1coc2ccc(O)cc12 | > 100 µM (inactive)
COC(=O)C1CC=C(SC(=O)c2ccccc2)N1C(=O)c1ccccc1 (stereo not drawn) | > 100 µM (inactive)
COc1ccc(-n2cnc3c(NC(C)(C)C(=O)O)ncnc32)cc1 | > 100 µM (inactive)
COc1c(C)cc2c(C(C)C)c(O)c(O)c(C=O)c2c1O | 17.2 µM (inactive)
Oc1cc(-c2ccc[nH]2)nc2cc3c(cc12)OCO3 | 17.1 µM (inactive)
CC(=O)N1c2ccccc2C(C)C1c1[nH]c2ccccc2c1C (stereo not drawn) | 19.5 µM (inactive)
Fc1ccc(C(OCCN2CCC3CCC(C2)N3Cc2cc3ccccc3[nH]2)c2ccc(F)cc2)cc1 (stereo not drawn) | 1.13 µM (inactive)
O=S1(=O)OCCOS(=O)(=O)C1Cc1nc2ccccc2[nH]1 | 34.5 µM (inactive)
COc1ccc(OC)c(C(Cc2ccnc3ccccc23)Cc2ccnc3ccccc23)c1 | 4.53 µM (inactive)
COC(=O)[C@@H]1O[C@]12C(CO[Si](C)(C)C(C)(C)C)OC(n1ccc(=O)[nH]c1=O)C2O[Si](C)(C)C(C)(C)C (stereo partly drawn) | 25.5 µM (inactive)
COc1cc(C(=O)N(C(=O)N2CCCCC2)c2ccccc2)cc(OC)c1OC | > 100 µM (inactive)
N#Cc1[nH]c(=O)n(-c2ccc(Cl)cc2)c1N | > 10 µM (inactive)
CCCCCCCCCCCCCCCC(=O)OCC1OC(n2cc(F)c(=O)[nH]c2=O)C(NC(=O)N(CCCl)N=O)C(O)C1O (stereo not drawn) | 1.76 µM (inactive)
